Answer each item with its documented folding stability dG.
B1: EEHEE_rd4_0647 (parent)
chain: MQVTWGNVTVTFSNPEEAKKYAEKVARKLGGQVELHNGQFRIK

Variants of: B1
Assay: folding stability dG (cDNA display proteolysis); higher = more stable
Settings: PBS, room temperature
Dear colleague, please return just the value in kcal/mol, with no unit written.

Query :: Tell me folding stability dG reported for MQVTWGNVTVTFSNPEEAKKYAEKVARKLGGQVELHNGQFRSK
Result :: 0.574

Query :: Tell me folding stability dG reported for MQVTWGNVTVTFSNPEEAKKYAEKVAYKLGGQVELHNGQFRIK
Result :: 2.41

Query :: Tell me folding stability dG reported for MQRTWGNVTVTFSNPEEAKKYAEKVARKLGGQVELHNGQFRIK
Result :: 0.122

Query :: Tell me folding stability dG reported for MQVTWGNVTVTFSNPEEAKKYAEKVARKLGGQVELHNGQCRIK
Result :: 1.51

Query :: Tell me folding stability dG reported for MQVTWGNVTVTFSNPEKAKKYAEKVARKLGGQVELHNGQFRIK
Result :: 2.69

Query :: Tell me folding stability dG reported for MQVTWGNVTVTFSNPEEAKKYAEKVIRKLGGQVELHNGQFRIK
Result :: 1.35

Query :: Tell me folding stability dG reported for MQVTWGNVTVTFSNPEEAKKYAEKVARDLGGQVELHNGQFRIK
Result :: 2.47

Query :: Tell me folding stability dG reported for MQVTWGPVTVTFSNPEEAKKYAEKVARKLGGQVELHNGQFRIK
Result :: 2.29

Query :: Tell me folding stability dG reported for MQVTWGNVTVTFSHPEEAKKYAEKVARKLGGQVELHNGQFRIK
Result :: 2.38

Query :: Tell me folding stability dG reported for MQVTWGNVTVTFSNPEEAKKYAEKVARKLGGQVELHNGKFRIK
Result :: 2.43

Query :: Tell me folding stability dG reported for MQVTWGNVTVTFSNPEEPKKYAEKVARKLGGQVELHNGQFRIK
Result :: -0.247
